tested on: C57BL/6 mice, Adenocarcinoma 755 sc, tumor weight T/C; assay: NCI In Vivo Anticancer Drug Screen. Data for tumor model Adenocarcinoma 755 (subcutaneous) in C57BL/6 mice; details: endpoint: mean tumor weight; dose: 10.0 mg/kg/injection; schedule: Q01DX011 (ip); vehicle: saline; higher = larger tumour

[
  {
    "Compound": "CC1CN1P(=S)(N1CC1C)N1CC1C (stereo not drawn)",
    "T/C": "73 % of control"
  },
  {
    "Compound": "CSc1ncnc2nc[nH]c12",
    "T/C": "23 % of control"
  },
  {
    "Compound": "CSc1nc(N)nc2nc[nH]c12",
    "T/C": "1 % of control"
  },
  {
    "Compound": "CCCNc1ncnc2c1cnn2C",
    "T/C": "46 % of control"
  },
  {
    "Compound": "CCCNc1ncnc2[nH]ncc12",
    "T/C": "62 % of control"
  },
  {
    "Compound": "CSc1ncnc2c1ncn2C1OC(CO)C(O)C1O (stereo not drawn)",
    "T/C": "50 % of control"
  },
  {
    "Compound": "CNc1ncnc2c1cnn2C",
    "T/C": "120 % of control"
  },
  {
    "Compound": "Nc1nc(SCc2ccccc2)c2[nH]cnc2n1",
    "T/C": "2 % of control"
  }
]

* * *

system: C57BL/6 mice, Adenocarcinoma 755 sc, tumor weight T/C; assay: NCI In Vivo Anticancer Drug Screen. Data for tumor model Adenocarcinoma 755 (subcutaneous) in C57BL/6 mice; conditions: endpoint: mean tumor weight; dose: 25.0 mg/kg/injection; schedule: Q01DX011 (ip); vehicle: saline; higher = larger tumour

[
  {
    "Compound": "Cc1ncc(CO)c(C)c1O",
    "T/C": "106 % of control"
  },
  {
    "Compound": "O=P1(N(CCF)CCCl)NCCCO1 (stereo unspecified)",
    "T/C": "66 % of control"
  },
  {
    "Compound": "CCCCNc1ncnc2[nH]ncc12",
    "T/C": "24 % of control"
  },
  {
    "Compound": "Clc1ncnc2c1ncn2Cc1ccco1",
    "T/C": "62 % of control"
  },
  {
    "Compound": "CN(C)c1ncnc2c1ncn2C1OC(CO)C(N)C1O (stereo unspecified)",
    "T/C": "62 % of control"
  },
  {
    "Compound": "CCn1cnc2c(Cl)ncnc21",
    "T/C": "29 % of control"
  }
]

* * *

test system: C57BL/6 mice, Adenocarcinoma 755 sc, tumor weight T/C; test: NCI In Vivo Anticancer Drug Screen. Data for tumor model Adenocarcinoma 755 (subcutaneous) in C57BL/6 mice; details: endpoint: mean tumor weight; dose: 6.25 mg/kg/injection; schedule: Q01DX011 (ip); vehicle: saline; higher = larger tumour
T/C reference
Test readout: T/C

[
  {
    "Compound": "Oc1ccc2ccccc2c1N=Nc1ccc(F)cc1",
    "Test readout": "T/C",
    "Observed value": "55 % of control"
  },
  {
    "Compound": "Cc1ncc(CO)c(C)c1O",
    "Test readout": "T/C",
    "Observed value": "107 % of control"
  },
  {
    "Compound": "O=P1(N(CCF)CCCl)NCCCO1 (centres undefined)",
    "Test readout": "T/C",
    "Observed value": "76 % of control"
  },
  {
    "Compound": "CCc1c(CC(=O)O)c2cc(C)ccc2n1Cc1ccc(Cl)cc1",
    "Test readout": "T/C",
    "Observed value": "109 % of control"
  }
]
